- assay_name: qHTS assay to identify small molecule agonists of the sonic hedgehog signaling (Shh) pathway - cell viability counter screen (AID 1259366); also: nearly all actives have a fitted effect of over 50% in size
- condition_details: NIH/3T3 Gli1-Luc viability, CellTiter-Fluor, 24 h; series mostly up to 92.4 µM
Records with an inconclusive call do not appear. Active and inactive are the calls of the source. Calls follow the shape of the dose curve; as a rule, active = well fitted cell-killing curve with a large enough effect in the repeat runs; inconclusive = weak or mixed curves, or effect the other way; inactive = flat fitted curve, though single readings scatter.
Tick one outcome: 1 (yes) for active, 0 (no) for inactive

Some solved cases for reference:
INSERT INTO assay_data (molecule, category) VALUES
  ('CNC(=O)Oc1cc(C)cc(C(C)C)c1', '0 (no)'),
  ('CCCCN(CCCC)C(=S)[S-].CCCCN(CCCC)C(=S)[S-].[Ni+2]', '0 (no)'),
  ('Fc1ccc(C(OCCN2CCN(CCCc3ccccc3)CC2)c2ccc(F)cc2)cc1', '1 (yes)'),
  ('CN(C)CCc1c[nH]c2ccccc12', '0 (no)'),
  ('CC(Cl)CCl (configuration not stated)', '0 (no)'),
  ('C#CCC1=C(C)C(OC(=O)C2C(C=C(C)C)C2(C)C)CC1=O (configuration not stated)', '0 (no)');

Now examine the next entry.
Q: What classification did CC(=O)[O-].CC(=O)[O-].O.O.[Zn+2] end up with in this test?
A: 0 (no)

###

- assay_name: qHTS assay to identify small molecule antagonists of the estrogen receptor alpha (ER-alpha) signaling pathway using the BG1 cell line - cell viability counter screen (AID 743081);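 also: compound given together with 17beta-estradiol as the ER stimulus; nearly all actives have a fitted effect of over 45% in size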
- condition_details: BG1Luc4E2 viability, CellTiter-Fluor, 22 h; series mostly up to 70.3 µM
Inconclusive results are not listed. Activity calls are given as the source filed them. Calls come from the whole dose curve; as a rule, active = well fitted cell-killing curve with a large enough effect in the repeat runs; inconclusive = weak or mixed curves, or effect the other way; inactive = flat fitted curve, though single readings scatter.
Tick one outcome: active, inactive

Some solved cases for reference:
INSERT INTO results (compound, category) VALUES
  ('CC(Cl)CCl (centres undefined)', 'inactive'),
  ('ClC1=C(Cl)[C@]2(Cl)[C@H]3[C@H]([C@@H]4C=C[C@H]3C4)[C@@]1(Cl)C2(Cl)Cl', 'inactive'),
  ('Nc1c(Cl)c(Cl)c(Cl)c(Cl)c1Cl', 'inactive');

Q: What classification did CCC(C)Nc1c([N+](=O)[O-])cc(C(C)(C)C)cc1[N+](=O)[O-] (centres undefined) end up with in this test?
A: inactive

Q: What classification did CNC(=O)Oc1cc(C)cc(C(C)C)c1 end up with in this test?
A: inactive

Q: What classification did CCC(C)Br (centres undefined) end up with in this test?
A: inactive

Q: What classification did O=c1[nH]c(Cl)c(Cl)cc1Cl end up with in this test?
A: inactive

Q: What classification did O=C(N[C@H]1N=C(c2ccccc2F)c2cccc3c2N(CC3)C1=O)c1cc2ccccc2[nH]1 end up with in this test?
A: inactive

Q: What classification did CC1CCCC1 end up with in this test?
A: inactive

Q: What classification did Oc1cc(Cl)cc(Cl)c1 end up with in this test?
A: inactive

Q: What classification did FC(F)C(F)(F)OCC(Cn1cncn1)c1ccc(Cl)cc1Cl (centres undefined) end up with in this test?
A: inactive

Q: What classification did Cc1ccc(C)c2ccccc12 end up with in this test?
A: inactive

###

- study_target: Estrogen receptor (Homo sapiens) (UniProt P03372)
- Sequence (P03372 whole entry, looked up): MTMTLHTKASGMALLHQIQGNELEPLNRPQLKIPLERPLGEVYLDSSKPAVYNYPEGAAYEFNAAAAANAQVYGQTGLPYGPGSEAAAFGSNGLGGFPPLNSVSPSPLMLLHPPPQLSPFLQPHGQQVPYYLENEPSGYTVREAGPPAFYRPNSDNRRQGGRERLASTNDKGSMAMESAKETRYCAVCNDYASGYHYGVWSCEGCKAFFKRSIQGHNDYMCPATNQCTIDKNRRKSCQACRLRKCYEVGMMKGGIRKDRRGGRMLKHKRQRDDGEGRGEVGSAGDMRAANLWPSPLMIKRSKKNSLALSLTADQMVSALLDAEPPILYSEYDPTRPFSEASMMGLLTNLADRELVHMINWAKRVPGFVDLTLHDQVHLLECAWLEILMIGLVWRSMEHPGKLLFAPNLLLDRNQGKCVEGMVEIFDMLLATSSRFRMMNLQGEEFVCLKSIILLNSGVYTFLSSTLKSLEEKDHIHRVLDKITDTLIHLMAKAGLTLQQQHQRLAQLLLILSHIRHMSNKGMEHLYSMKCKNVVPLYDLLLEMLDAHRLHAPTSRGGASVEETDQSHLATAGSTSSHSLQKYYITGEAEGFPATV
- assay_name: qHTS assay to identify small molecule agonists of the estrogen receptor alpha (ER-alpha) signaling pathway using the BG1 cell line (AID 743079); also: nearly all actives have a fitted effect of over 20% in size; also: potency is read from the fitted curve at half-maximal effect
- condition_details: BG1Luc4E2 cells, ERE-luciferase agonist, 22 h
Records with an inconclusive call do not appear. Activity calls are given as the source filed them. Calls come from the whole dose curve; as a rule, active = well fitted activation curve with a large enough effect in the repeat runs; inconclusive = weak or mixed curves, or effect the other way; inactive = no such curve, though single readings can be large or run the other way.
quantity_name: Potency

Example entries begin here.
INSERT INTO measurements (molecule, quantity_name, result) VALUES
  ('N#Cc1c[nH]cc1-c1cccc2c1OC(F)(F)O2', 'Potency', 'inactive'),
  ('O=S1(=O)OCC2C(CO1)C1(Cl)C(Cl)=C(Cl)C2(Cl)C1(Cl)Cl (stereo not drawn)', 'Potency', 'inactive'),
  ('O=C(O)[C@H](O)[C@@H](O)C(=O)O', 'Potency', 'inactive'),
  ('c1ccc(Nc2ccc(Nc3ccccc3)cc2)cc1', 'Potency', '6.09 µM (active)');

For every item in the list below, what is its measured Potency?
1. CC(C)C(Br)C(=O)NC(N)=O (stereo not drawn)
2. CCC1(CC)C(=O)N=C(O)NC1=O
3. Brc1ccc(Oc2ccc(Br)cc2Br)c(Br)c1

A:
1. inactive
2. inactive
3. 19.4 µM (active)

For every item in the list below, what is its measured Potency?
1. CC(C)=CCN1CC[C@@]2(C)c3cc(O)ccc3C[C@@H]1[C@@H]2C
2. N#CSCc1ccccc1
3. ClC1(Cl)C2(Cl)C3(Cl)C4(Cl)C(Cl)(Cl)C5(Cl)C3(Cl)C1(Cl)C5(Cl)C24Cl (stereo not drawn)
4. S=C=Nc1ccccc1
5. Clc1ccc(C2(Cn3cncn3)OCCO2)c(Cl)c1

A:
1: inactive; 2: inactive; 3: inactive; 4: inactive; 5: inactive

Q: # lookup: Estrogen receptor (Homo sapiens) (UniProt P03372) Potency, key = Oc1cc(Cl)cc(Cl)c1
A: inactive

###

- study_target: Voltage-gated inwardly rectifying potassium channel KCNH2 (Homo sapiens)
- assay_name: Human Ether-a-go-go-Related Gene (hERG) channel small molecule antagonists: fluorescence cell-based qHTS assay (AID 1671200); also: nearly all actives have a fitted effect of over 50% in size
- condition_details: hERG-U2OS cells, FluxOR thallium flux fluorescence; series mostly up to 76.8 µM
Results filed as inconclusive are left out. The source made the active and inactive calls. The call rests on the fitted dose curve; in most records, active means well fitted inhibition curve with a large enough effect in the repeat runs; inconclusive means weak or mixed curves; inactive means flat fitted curve, though single readings scatter.
Tick one outcome: active, inactive

INSERT INTO measurements (compound, category) VALUES
  ('COc1ccc2c(c1OC)C(=O)O[C@@H]2[C@H]1c2cc3c(cc2CCN1C)OCO3', 'active');

Q: What classification did CC(C)NCC(O)c1ccccc1Cl (stereo not given) end up with in this test?
A: inactive

Q: What classification did Brc1ccc(Oc2ccc(Br)cc2Br)c(Br)c1 end up with in this test?
A: inactive

Q: What classification did ClSC(Cl)(Cl)Cl end up with in this test?
A: inactive

Q: What classification did CN1CCc2cc3c(cc2C1O)OCO3 (stereo not given) end up with in this test?
A: inactive

Q: What classification did Nc1nc(N)nc(Cl)n1 end up with in this test?
A: inactive

###

- assay_name: qHTS assay for small molecule activators of the heat shock response signaling pathway - cell viability counter screen (AID 743209); also: nearly all actives have a fitted effect of over 50% in size
- condition_details: HSE-bla HeLa viability, CellTiter-Glo luminescence, 5 h; series mostly up to 62.6 µM
Records with an inconclusive call do not appear. The source made the active and inactive calls. The call rests on the fitted dose curve; in most records, active means well fitted cell-killing curve with a large enough effect in the repeat runs; inconclusive means weak or mixed curves, or effect the other way; inactive means no such curve, though single readings can be large or run the other way.
Tick one outcome: YES (active), NO (inactive)

Some solved cases for reference:
INSERT INTO assay_data (compound, category) VALUES
  ('CC(O)C(=O)[O][Hg][c]1ccccc1 (centres undefined)', 'YES'),
  ('Cc1ccccc1OP(=O)(Oc1ccccc1C)Oc1ccccc1C', 'NO'),
  ('CCNc1nc(NC(C)C(C)C)nc(SC)n1 (centres undefined)', 'NO'),
  ('O=c1[nH]c(Cl)c(Cl)cc1Cl', 'NO'),
  ('CC(=O)[O-].CC(=O)[O-].O.O.[Zn+2]', 'NO'),
  ('O=C(NC(=O)c1c(F)cccc1F)Nc1ccc(Oc2ccc(C(F)(F)F)cc2Cl)cc1F', 'NO'),
  ('C[C@@H]1CC2=CC(=O)CC[C@@H]2[C@H]2CC[C@@]3(C)[C@@H](CC[C@]3(C)O)[C@@H]21', 'NO'),
  ('ClC1=C(Cl)[C@]2(Cl)[C@@H]3[C@H]4C[C@H]([C@@H]5O[C@H]45)[C@@H]3[C@@]1(Cl)C2(Cl)Cl', 'NO'),
  ('CC1CCCC1', 'YES'),
  ('CC#C[C@]1(O)CC[C@H]2[C@@H]3C[C@H](C)C4=CC(=O)CC[C@]4(C)[C@H]3CC[C@@]21C', 'NO');

Q: What classification did CC(C)c1c(CN(C)C(C)Cc2ccccc2)n(C)n(-c2ccccc2)c1=O (centres undefined) end up with in this test?
A: NO

Q: What classification did O=C1C(Cl)=C(Cl)C(=O)C(Cl)=C1Cl end up with in this test?
A: NO

Q: What classification did CCCCn1cc[n+](C)c1 (tested in a mixture with another compound) end up with in this test?
A: NO

Q: What classification did C[C@]12C/C(=C/O)C(=O)C[C@@H]1CC[C@@H]1[C@@H]2CC[C@@]2(C)[C@H]1CC[C@]2(C)O end up with in this test?
A: NO

Q: What classification did COC(=O)/C=C(\C)OP(=O)(OC)OC end up with in this test?
A: NO

Q: What classification did Clc1ccc(C(Cl)(Cl)Cl)cc1Cl end up with in this test?
A: NO

Q: What classification did Oc1cccc(Cl)c1Cl end up with in this test?
A: NO

Q: What classification did C#CCO end up with in this test?
A: NO

Q: What classification did O=c1c2ccccc2c(=O)c2c1cc(Cl)c1[nH]c3c([nH]c12)c(Cl)cc1c(=O)c2ccccc2c(=O)c13 end up with in this test?
A: NO

Q: What classification did CC1(C)[C@H](/C=C2\CCSC2=O)[C@@H]1C(=O)OCc1coc(Cc2ccccc2)c1 end up with in this test?
A: NO

Q: What classification did COC(=O)C(C)N(C(=O)c1ccco1)c1c(C)cccc1C (centres undefined) end up with in this test?
A: NO

Q: What classification did CN(C)c1ccc(N)cc1 end up with in this test?
A: NO

Q: What classification did CN(C)C(=S)SSC(=S)N(C)C end up with in this test?
A: NO

Q: What classification did O=C(O)CCCCCCNC1c2ccccc2CCc2ccccc21 end up with in this test?
A: NO

Q: What classification did N#CSCc1ccccc1 end up with in this test?
A: NO
